- Tested on: 242566-281-R-J2-PDC complex spheroid viability;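 note: spheroids exposed to compounds for 7 days before readout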
- test-name: Anticancer human tumor 242566-281-R-J2-PDC patient-derived pancreatic carcinoma cell line growth inhibition [CLK]; active = viability on the fitted dose curve at most 10% of control; inactive = the rest
- condition: second compound 3.16 µM; first compound 0.003 µM
Please state which outcome applies, choosing from active, inactive

Known results for molecules:
molecule	class-label
CC(C)CC(NC(=O)C(Cc1ccccc1)NC(=O)c1cnccn1)B(O)O (centres undefined) + CNC(=O)c1ccc(Nc2nc(OC3CCCC3)c3c(-c4ccc5nc(C)oc5c4)c[nH]c3n2)c(OC)c1	active
C=CC(=O)Nc1cc(Nc2nccc(-c3cn(C)c4ccccc34)n2)c(OC)cc1N(C)CCN(C)C + CN1CCN(c2cc(C(=O)Nc3cc4cc(-c5cnn(C)c5)ccc4cn3)ccn2)CC1	active
CC(C)CC(NC(=O)C(Cc1ccccc1)NC(=O)c1cnccn1)B(O)O (centres undefined) + CN1CCN(c2cc(C(=O)Nc3cc4cc(-c5cnn(C)c5)ccc4cn3)ccn2)CC1	active

Shift focus to the following entry.
Fill in: this test's call for C=CC(=O)Nc1cc(Nc2nccc(-c3cn(C)c4ccccc34)n2)c(OC)cc1N(C)CCN(C)C + CNC(=O)c1ccc(Nc2nc(OC3CCCC3)c3c(-c4ccc5nc(C)oc5c4)c[nH]c3n2)c(OC)c1 is ___
inactive

The origin of these recorded values is PubChem BioAssay AID2060622.
